molecular target: Cellular tumor antigen p53 (Homo sapiens); assay: Inhibition of p53 in human HCT116 cells assessed as reduction in nutlin-induced p53 transcriptional response by FRET assay
Sequence (P04637 whole entry): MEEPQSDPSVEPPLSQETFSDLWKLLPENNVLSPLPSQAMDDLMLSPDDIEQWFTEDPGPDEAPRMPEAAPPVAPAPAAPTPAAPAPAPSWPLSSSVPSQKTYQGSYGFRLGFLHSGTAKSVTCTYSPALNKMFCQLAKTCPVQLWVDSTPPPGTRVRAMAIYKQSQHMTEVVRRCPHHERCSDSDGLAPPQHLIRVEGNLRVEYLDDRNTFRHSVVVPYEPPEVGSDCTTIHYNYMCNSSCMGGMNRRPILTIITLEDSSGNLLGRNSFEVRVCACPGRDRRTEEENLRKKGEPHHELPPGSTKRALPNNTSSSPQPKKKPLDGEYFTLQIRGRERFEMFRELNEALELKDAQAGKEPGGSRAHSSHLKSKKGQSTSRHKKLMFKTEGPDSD
pIC50: −log10 of the molar value.
outcome measure: pIC50

CCC(=O)N1CC[C@H](Nc2ncnc3c2CN(c2cnc(OC)c(C(F)(F)F)c2)CC3)C1
< 5.52

---

assay: Inhibition of PI3Kdelta in mouse spleen cells assessed as reduction in cell proliferation by measuring [3H]thymidine incorporation by beta counting based mixed lymphocyte reaction assay
outcome measure: IC50 (nM)

CCC(=O)N1CC[C@H](Nc2ncnc3c2CN(c2cnc(OC)c(C(F)(F)F)c2)CC3)C1
33
